meta.source: patent US20260256790A1

Assay: Plasma, brain and CSF concentrations (PK) in healthy rats after single oral dose
Assay type: in vivo, Wistar Han rats
Conditions: male, Wistar Han, rat, CSF, po; 15 mg/kg p.o. single dose; read-out: AUCLast, CSF
Endpoint: AUC(0-t) (ng·h/mL)
One number for each entry, in ng·h/mL.

Lookup: // Input: Cc1cc(Nc2ncc3c(n2)N(C)CN(c2c(Cl)cccc2Cl)C3=O)ccc1C1CCN(C)CC1 . Output its AUC(0-t) only.
Found: 219

====

Test: CSF and matching plasma concentrations in glioma patients (clinical trial Arms A and B)
Format: in vivo, human
Conditions: human, CSF / unbound plasma, 200 mg, Arm A, 200 mg, day 11 of cycle 1; read-out: CSF to “unbound plasma” ratio
Endpoint: Kp at 11 day
Give bare numbers.

Lookup: // Input: Cc1cc(Nc2ncc3c(n2)N(C)CN(c2c(Cl)cccc2Cl)C3=O)ccc1C1CCN(C)CC1 . Output its Kp at 11 day only.
Found: 0.38
